Test: solubility in water
Format: physicochemical
measurement-kind: solubility

# structure-smiles-string, recorded-result
rows = [
    ("NC(=O)CN1C[C@H](O)CC1=O", "≥ 100 mg/mL"),
]
